SUBJECT OF TEST: Recombinant mouse PD-L1 (Mus musculus)
Construct: Fc (Fc chimera); purchased R&D Systems 1019-B7-100
Sequence (Q9EP73 with tags, fused parts or gaps limits assumed): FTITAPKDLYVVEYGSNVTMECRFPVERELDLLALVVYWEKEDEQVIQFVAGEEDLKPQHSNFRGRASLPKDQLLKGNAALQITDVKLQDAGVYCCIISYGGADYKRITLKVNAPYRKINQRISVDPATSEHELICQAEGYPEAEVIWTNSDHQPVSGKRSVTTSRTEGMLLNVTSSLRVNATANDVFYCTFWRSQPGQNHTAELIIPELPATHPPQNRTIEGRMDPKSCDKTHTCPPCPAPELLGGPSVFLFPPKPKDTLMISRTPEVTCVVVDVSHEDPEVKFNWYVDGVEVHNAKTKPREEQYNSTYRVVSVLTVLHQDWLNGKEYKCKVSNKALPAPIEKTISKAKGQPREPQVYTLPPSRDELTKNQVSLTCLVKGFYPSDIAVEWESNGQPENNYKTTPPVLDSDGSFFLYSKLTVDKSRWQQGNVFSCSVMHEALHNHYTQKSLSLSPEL
ASSAY PROTOCOL: Rescue of mouse splenocyte proliferation in the presence of recombinant PD-L1 (CFSE proliferation assay)
Type: cell-based
ASSAY CONDITIONS: 100 nM compound; CFSE-labelled C57 BL6 mouse splenocytes + anti-CD3/CD28 + PD-L1 (100 ng/mL), 72 h; normalised to stimulated splenocytes as 100%; read-out: Percent rescue of splenocyte proliferation (@100 nM)
PROPERTY: activation at 0.1 µM (%)

| COMPOUND | VALUE UNITS | REPORTED RESULT |
| --- | --- | --- |
| CC(O)[C@H](NC(=O)N[C@@H](CC(=O)O)c1nc([C@@H](N)CCCNC(=N)N)no1)C(=O)O (stereo partly shown) [Compound 32] | % | 70 |
| CCC(C)[C@H](N)c1noc([C@H](CC(N)=O)NC(=O)N[C@H](C(=O)O)C(C)O)n1 (stereo partly shown) [Compound 9] | % | 84 |
| N[C@@H](CCC(=O)O)c1noc([C@@H]2CCCN2C(=O)N[C@@H](CC(=O)O)C(=O)O)n1 [Compound 24] | % | 17 |
| CC(O)[C@H](NC(=O)N[C@@H](CC(N)=O)c1noc([C@@H](N)CO)n1)C(=O)O (stereo partly shown) [Compound 83] | % | 34 |
| CC(=O)Nc1ccc(S(=O)(=O)N[C@@H](CC(N)=O)c2nc([C@@H](N)CO)no2)cc1 [Compound 90] | % | 66 |
| CC(C)C[C@H](N)c1noc([C@H](CC(N)=O)NC(=O)CNC(=O)N[C@H](C(=O)O)C(C)O)n1 (stereo partly shown) [Compound 82] | % | 12 |
| NC(=O)C[C@H](NC(=O)N[C@@H](CCC(=O)O)C(=O)O)c1nc([C@@H](N)CO)no1 [Compound 4] | % | 44 |
